tested on: M14; assay: NCI tumour cell line growth inhibition, 48 h
Calls of active or inactive are those of the source. Rule as the data show it: active = GI50 up to about 1.1 µM and inactive = higher.
experimental_readout: GI50

Worked examples, 3 compounds total:
>  <compound>
O=C(O)c1cccc(/C=C/c2ccccc2)c1

>  <GI50>
> 100 µM (inactive)

$$$$
>  <compound>
O=C(CC1(O)C(=O)Nc2ccc(Br)cc21)c1ccc(Cl)cc1 (stereo not given)

>  <GI50>
83.2 µM (inactive)

$$$$
>  <compound>
C=C1[C@H](OC(C)=O)[C@H]2[C@@H](OC(C)=O)[C@@H](C)C[C@]2(C)C(=O)[C@H](C)/C=C/C(C)(C)C(=O)[C@H](OCC(C)C)[C@H]1OC(C)=O

>  <GI50>
> 25 µM (inactive)

$$$$

Please find the next compound below.
Query: Reported GI50, compound Nc1ccc2nc3n(c2c1)C(=O)c1ccccc1-3 : ____
Response: > 100 µM (inactive)

----------
tested on: OVCAR-5; experiment: NCI tumour cell line growth inhibition, 48 h
Activity calls are given as the source filed them. Cut-off read from the data, not from the text of the source: active = GI50 up to about 1.1 µM and inactive = higher.
Each entry below lists one item and its recorded GI50 value.

These solved cases illustrate the format of a correct answer.
>  <compound>
CO[C@@H]1C[C@H](OC(N)=O)[C@@H]2C=C[C@@H]3/C=C(C)/C=C/[C@@H](C)[C@H]([C@H](C)[C@H](O)[C@@H](C)NC(C)=O)OC(=O)/C=C/C=C(C)\C=C\[C@]3(C)[C@@H]2C1

>  <GI50>
1.42 µM (inactive)

$$$$
>  <compound>
[N-]=[N+]=CC(=O)OC1CCc2ccccc21 (centres undefined)

>  <GI50>
46.5 µM (inactive)

$$$$
>  <compound>
CC(=O)OC1CCC2(C)C3CCC4(C)C(c5ccc(=O)oc5)CC5OC54C3CCC2(O)C1 (centres undefined)

>  <GI50>
5.81 µM (inactive)

$$$$

Query: Given OCCOCn1nncc1Cn1ncc2c(SCc3ccccc3)ncnc21 , state its recorded GI50.
Response: > 100 µM (inactive)

Query: Consider the compound CC12CC1C(c1cccc([N+](=O)[O-])c1)(c1cccc([N+](=O)[O-])c1)N=N2 (centres undefined) and give its measured GI50.
Response: 53.3 µM (inactive)

Query: # input compound: CCOC(=O)/C=C(/C(=O)OCC)n1cnc2c(=O)[nH]c(NC(C)=O)nc21 ; wanted: its GI50
Response: > 100 µM (inactive)

Query: I have this compound here, O=C(O)CNC(=O)c1ccccc1O , and I need its recorded GI50.
Response: > 100 µM (inactive)

Query: Using the record for CCC1(c2ccc(N3C(=O)c4ccccc4C3=O)cc2)CCC(=O)NC1=O (centres undefined) , report its GI50.
Response: > 10 µM (inactive)

Query: Requested read-out: GI50. Entry: CCCC(=O)N[C@H]1C2C3CC4C5CC(C42)C1(C)C53 (some centres undefined)
Response: > 100 µM (inactive)

----------
test system: SK-MEL-2; test: NCI tumour cell line growth inhibition, 48 h
Calls of active or inactive are those of the source. Cut-off read from the data, not from the text of the source: active = GI50 up to about 1.1 µM and inactive = higher.
Log the outcome using a class from active, inactive

Example entries begin here.
>  <compound>
COc1ccc(C(C#N)NNC(=O)c2ccccc2O)cc1OC (stereo unspecified)

>  <class_assignment>
active

$$$$
>  <compound>
CCOC(=O)c1cc2c([nH]1)c(OC(C)=O)cc1c2ccn1Cc1ccccc1

>  <class_assignment>
inactive

$$$$
>  <compound>
COc1ccc(/C(Cl)=C(\C=O)c2ccc(F)cc2)cc1OC

>  <class_assignment>
inactive

$$$$
>  <compound>
Fc1cccc(Cl)c1/C=N\N=C1c2ccccc2-c2ccccc21

>  <class_assignment>
inactive

$$$$
>  <compound>
C[C@H]1CC[P+](Cc2ccccc2)(c2ccccc2)C1 (stereo partly specified)

>  <class_assignment>
inactive

$$$$
>  <compound>
COC(=O)C1C(=O)NC2(C)CC1c1ccccc1O2 (stereo unspecified)

>  <class_assignment>
inactive

$$$$

Query: What call does the record list for CC(=O)O[C@H]1C[C@H]2[C@@H]([C@H](OC(C)=O)C[C@@H]3CC4(CC[C@@]32C)OOC2(CCCCC2)OO4)[C@@H]2CC[C@H]([C@H](C)CCC(=O)O)[C@@]12C ?
Response: inactive

Query: Field: outcome | Entry: COC(=O)c1cc(-c2cccn2C)c2c(c1C(=O)OC)c1ccccc1n2C
Response: inactive

Query: Please let me know the test result on file for CS(=O)(=O)N(CC(=O)O)Cc1ccccc1 .
Response: inactive

Query: Assay outcome for CC(=O)Nc1ccc(-c2cc(C(=O)O)c3cc4ccccc4cc3n2)cc1 : what was it?
Response: inactive

Query: So what was the verdict on CC/C(C)=C1\CCC(CN(C)C)C1=O (stereo unspecified) in this test?
Response: inactive

Query: Record request — test call for CC(C)=CCC/C(C)=C\CC/C(C)=C/CO
Response: inactive

Query: Test call for this compound, please: N#C/C(=C/n1c(=S)[nH]c2ccc([N+](=O)[O-])cc21)C(N)=O
Response: inactive

Query: Could you please tell me the result logged for O=C1O/C(=C\c2ccc(O)c(Br)c2)C(c2ccc(O)cc2)=C1Cl in this assay?
Response: inactive

Query: Which outcome was entered for the compound NC(Cc1ccccc1)C(=O)OCN1C(=O)C2C3C=CC(C2C1=O)C1C(=O)N(COC(=O)C(N)Cc2ccccc2)C(=O)C31 (stereo unspecified) in this test?
Response: inactive

Query: What did this assay record as the result for CC(=O)Oc1c2c(c3n(c1=O)CCCC3)C(=O)N(c1ccccc1)C2=O ?
Response: inactive

Query: Entry COc1c(O)c(OC)c(C(=O)/C=C/c2ccccc2)c(O)c1OC : call = ?
Response: inactive

Query: Lab log entry: COC1=CC(=O)[C@H]2[C@H](C)C(c3ccccc3)[C@@]2(C)C1=O (stereo partly specified) — outcome as called in the assay?
Response: inactive

Query: Each compound tested received a call. Report the one for CCC(C)N1CN(c2ccccc2)C2(CCN(CCCC3(c4ccc(F)cc4)OCCO3)CC2)C1=O (stereo unspecified) .
Response: inactive

Query: Look up the recorded call for COc1nc(C#CCC(C)O)nc(OC)n1 (stereo unspecified) in this test.
Response: inactive

Query: Each compound tested received a call. Report the one for O=[N+]([O-])c1ccc(NC(=S)Nc2ccccn2)cc1 .
Response: inactive
